# Species: Rattus norvegicus
# assayExplanation: DrugMatrix - Regimen: Daily Repeat
# Type: toxicity, organism-based, Sprague-Dawley
# Design: regimen Daily Repeat, gender Male, age 6-8 weeks
# cond: in vivo, po, 1500 mg/kg, 72 h, tissue Plasma, route oral GAVAGE, dose level High, time 3 day, vehicle .5 % CMC
endpointName: URIC ACID (mg/dL)
Answer format: numeric, mg/dL implied, no suffix.

URIC ACID recorded for this compound, NC(=O)c1cnccn1 [PYRAZINAMIDE] , is 1.47

URIC ACID recorded for this compound, Cc1cc(=O)n(-c2ccccc2)n1C [ANTIPYRINE] , is 1.53

URIC ACID recorded for this compound, O=C(N[C@H](CO)[C@H](O)c1ccc([N+](=O)[O-])cc1)C(Cl)Cl , is 1.4

URIC ACID recorded for this compound, CO[C@H]1/C=C/O[C@@]2(C)Oc3c(C)c(O)c4c(c3C2=O)C2=NC3(CCN(CC(C)C)CC3)NC2=C(NC(=O)/C(C)=C\C=C\[C@H](C)[C@H](O)[C@@H](C)[C@@H](O)[C@@H](C)[C@H](OC(C)=O)[C@@H]1C)C4=O , is 1.7

URIC ACID recorded for this compound, C[C@]1(Cn2ccnn2)[C@H](C(=O)O)N2C(=O)C[C@H]2S1(=O)=O , is 1.73

URIC ACID recorded for this compound, Cc1ccc(S(=O)(=O)NC(=O)NN2CC3CCCC3C2)cc1 (configuration not stated) [GLICLAZIDE] , is 2.57

URIC ACID recorded for this compound, CNC(=C[N+](=O)[O-])NCCSCc1ccc(CN(C)C)o1 , is 1.37

* * *

# Species: Rattus norvegicus
# assayExplanation: DrugMatrix - Regimen: Daily Repeat
# Format: toxicity, organism-based, Sprague-Dawley
# Parameters: regimen Daily Repeat, gender Male, age 6-8 weeks
# cond: in vivo, ip, 0 mg/kg, 120 h, tissue Blood, route intraperitoneal, dose level Control, time 5 day, vehicle 100 % SALINE
endpointName: ABSOLUTE SEGMENTED NEUTROPHIL (cells/µL)
Answer format: numeric, cells/µL implied, no suffix.

ABSOLUTE SEGMENTED NEUTROPHIL recorded for this molecule, CCN[C@@H]1C[C@H](N)[C@@H](O[C@H]2OC(CN)=CC[C@H]2N)[C@H](O)[C@H]1O[C@H]1OC[C@](C)(O)[C@H](NC)[C@H]1O [NETILMICIN] , is 1170

* * *

# Organism: Rattus norvegicus
# assayExplanation: DrugMatrix - Regimen: Daily Repeat
# Format: toxicity, organism-based, Sprague-Dawley
# Set-up: regimen Daily Repeat, gender Male, age 6-8 weeks
# cond: in vivo, po, 0 mg/kg, 120 h, tissue Blood, route oral GAVAGE, dose level Control, time 5 day, vehicle .5 % CMC
Record form. Attribute: NEUTROPHIL. Fill in for each entry.
Answer format: numeric, % implied, no suffix.

NEUTROPHIL recorded for this molecule, CC[C@@H](CO)NCCN[C@@H](CC)CO , is 12.33

NEUTROPHIL recorded for this molecule, Cc1onc(-c2ccccc2)c1-c1ccc(S(N)(=O)=O)cc1 , is 11.97

NEUTROPHIL recorded for this molecule, N=C(N)NC(=O)c1nc(Cl)c(N)nc1N [AMILORIDE] , is 12.33

NEUTROPHIL recorded for this molecule, OC(CCN1CCCCC1)(c1ccccc1)C1CCCCC1 (configuration not stated) , is 6.67

NEUTROPHIL recorded for this molecule, O=[N+]([O-])c1ccccc1 , is 8.67

NEUTROPHIL recorded for this molecule, C[C@]1(Cn2ccnn2)[C@H](C(=O)O)N2C(=O)C[C@H]2S1(=O)=O , is 8.33

NEUTROPHIL recorded for this molecule, CNC(=C[N+](=O)[O-])NCCSCc1ccc(CN(C)C)o1 , is 6.67

* * *

Record form. Attribute: HEMOGLOBIN. Fill in for each entry.
# Organism: Rattus norvegicus
# assayExplanation: DrugMatrix - Regimen: Daily Repeat
# Type: toxicity, organism-based, Sprague-Dawley
# Set-up: regimen Daily Repeat, gender Male, age 6-8 weeks
# cond: in vivo, iv, 0 mg/kg, 72 h, tissue Blood, dose level Control, time 3 day, vehicle 100 % SALINE
Answer format: numeric, G/DL implied, no suffix.

HEMOGLOBIN recorded for this molecule, CC[C@]1(O)C[C@@H]2CN(CCc3c([nH]c4ccccc34)[C@@](C(=O)OC)(c3cc4c(cc3OC)N(C)[C@H]3[C@@](O)(C(=O)OC)[C@H](OC(C)=O)[C@]5(CC)C=CCN6CC[C@]43[C@@H]65)C2)C1 [VINBLASTINE] , is 13.8

HEMOGLOBIN recorded for this molecule, CC(=O)N[C@@H]1[C@H](Oc2c3cc4cc2Oc2ccc(cc2Cl)[C@@H](O[C@@H]2O[C@@H](CO)[C@@H](O)[C@H](O)[C@@H]2NC(C)=O)[C@@H]2NC(=O)[C@H](NC(=O)[C@@H]4NC(=O)[C@H]4NC(=O)[C@@H](Cc5ccc(c(Cl)c5)O3)NC(=O)[C@H](N)c3ccc(O)c(c3)Oc3cc(O)cc4c3)c3ccc(O)c(c3)-c3c(O[C@H]4O[C@H](CO)[C@@H](O)[C@@H](O)[C@@H]4O)cc(O)cc3[C@@H](C(=O)O)NC2=O)O[C@@H](CO)[C@@H](O)[C@@H]1O , is 13.48

HEMOGLOBIN recorded for this molecule, CCc1c2c(nc3ccc(OC(=O)N4CCC(N5CCCCC5)CC4)cc13)-c1cc3c(c(=O)n1C2)COC(=O)[C@]3(O)CC [IRINOTECAN] , is 13.72

HEMOGLOBIN recorded for this molecule, CCC1=C[C@@H]2CN(C1)Cc1c([nH]c3ccccc13)[C@@](C(=O)OC)(c1cc3c(cc1OC)N(C)[C@H]1[C@@](O)(C(=O)OC)[C@H](OC(C)=O)[C@]4(CC)C=CCN5CC[C@]31[C@@H]54)C2 [VINORELBINE] , is 13.6

HEMOGLOBIN recorded for this molecule, COc1cccc2c1C(=O)c1c(O)c3c(c(O)c1C2=O)C[C@@](O)(C(=O)CO)C[C@@H]3O[C@H]1C[C@H](N)[C@@H](O)[C@H](C)O1 [EPIRUBICIN] , is 13.72

HEMOGLOBIN recorded for this molecule, COc1cccc2c1C(=O)c1c(O)c3c(c(O)c1C2=O)C[C@@](O)(C(=O)CO)C[C@@H]3O[C@H]1C[C@H](N)[C@H](O)[C@H](C)O1 [DOXORUBICIN] , is 12.97

* * *

# Organism: Rattus norvegicus
# Type: toxicity, organism-based, Sprague-Dawley
# cond: in vivo, po, 0 mg/kg, 24 h, vehicle control, tissue Blood, route oral GAVAGE, dose level Control, time 1 day, […]
# Description: DrugMatrix - Regimen: Single
endpointName: ABSOLUTE BASOPHIL (cells/µL)
Answer format: numeric, cells/µL implied, no suffix.

ABSOLUTE BASOPHIL recorded for this molecule, Clc1ccc(Cl)cc1 [1,4-DICHLOROBENZENE] , is 46.7

* * *

# Organism: Rattus norvegicus
# assayExplanation: DrugMatrix - Regimen: Daily Repeat
# Type: toxicity, organism-based, Sprague-Dawley
# Parameters: regimen Daily Repeat, gender Male, age 6-8 weeks
# cond: in vivo, po, 0 mg/kg, 72 h, tissue Plasma, route oral GAVAGE, dose level Control, time 3 day, […]
endpointName: URIC ACID

URIC ACID recorded for this compound, CCOC(=O)C1=C(C)NC(C)=C(C(=O)OC)C1c1cccc([N+](=O)[O-])c1 (stereo not given) , is 0.7 mg/dL

URIC ACID recorded for this compound, CCOC(=O)C(C)(C)Oc1ccc(Cl)cc1 [CLOFIBRATE] , is 0.87 mg/dL

URIC ACID recorded for this compound, CC/C(=C(/CC)c1ccc(O)cc1)c1ccc(O)cc1 , is 0.5 mg/dL

URIC ACID recorded for this compound, S=C=Nc1cccc2ccccc12 [1-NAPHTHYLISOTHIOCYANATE] , is 0.62 mg/dL

URIC ACID recorded for this compound, C[C@]12CC[C@@H]3c4ccc(O)cc4CC[C@H]3[C@@H]1CC[C@@H]2O , is 0.48 mg/dL

URIC ACID recorded for this compound, Clc1ccc(Cl)cc1 , is 0.83 mg/dL

URIC ACID recorded for this compound, O=C(O)Cc1ccccc1Nc1c(Cl)cccc1Cl , is 1.38 mg/dL

URIC ACID recorded for this compound, COc1ccc2[nH]c([S+]([O-])Cc3ncc(C)c(OC)c3C)nc2c1 (stereo not given) , is 1.6 mg/dL

URIC ACID recorded for this compound, CC(=O)Nc1ccc(O)cc1 , is 0.8 mg/dL

URIC ACID recorded for this compound, CC(C)Cc1ccc(C(C)C(=O)O)cc1 (stereo not given) , is 0.67 mg/dL
